Values from ChEMBL document CHEMBL3988442

assay: microbe, parasite or virus in culture; details: Mycobacterium tuberculosis, 96 h, read-out: pIC50 (converted)
The following compounds are listed with their measured IC50 values.

Reference set, count: 3
compound | test result
CN(C)c1cc(Cn2cnc3sccc3c2=O)ccn1 | > 501 µM
CN1CCCN(C(=O)c2ccco2)c2ccccc21 | 191 µM
Cc1n[nH]cc1CNCC(c1ccsc1)N(C)C (stereo not drawn) | > 50.1 µM

From here, focus on the item given below.
Problem: Tell me its IC50 given CC(C)COCC(O)Cn1nnc(-c2ccco2)n1 (stereo not drawn) as the entry.
Result: 12.9 µM

---

test: microbe, parasite or virus in culture; conditions: Mycobacterium tuberculosis, 96 h, read-out: pIC50 (converted)
The following molecules are listed with their measured IC50 values.

Problem: Tell me its IC50 given Cc1cccnc1CN1CCOC(Cc2cccc3ccccc23)C1 (configuration not stated) as the entry.
Result: > 50.1 µM

Problem: Tell me its IC50 given CCCn1c(N2CCCC(C)C2)nc2c(C)nn(C)c2c1=O (configuration not stated) as the entry.
Result: > 50.1 µM

---

assay: microbe, parasite or virus in culture; settings: Mycobacterium tuberculosis, 72 h, read-out: pIC50 (converted)
IC50 vs 50 µM: less than gives MET; not less than gives NOT MET.

molecule | assigned category
CC1CCCCN1S(=O)(=O)N1CCNCC1 (configuration not stated) | NOT MET

Problem: Criterion: IC50 strictly below 50 µM. Is it met by COCCCSc1ccc(NCc2scnc2C)cc1 ?
Result: MET

Problem: Criterion: IC50 strictly below 50 µM. Is it met by O=C(CSc1nncs1)N1CCN(Cc2ccc(Cl)s2)CC1 ?
Result: MET

Problem: Criterion: IC50 strictly below 50 µM. Is it met by CC(=O)c1c(C)[nH]c(C(=O)OCC(=O)N(C)C)c1C ?
Result: NOT MET

Problem: Criterion: IC50 strictly below 50 µM. Is it met by O=C(CN1CCN(c2ccccc2)CC1)N1CCCC1 ?
Result: NOT MET

Problem: Criterion: IC50 strictly below 50 µM. Is it met by CC(C)COc1cncc(NC(C)CO)n1 (configuration not stated) ?
Result: NOT MET

Problem: Criterion: IC50 strictly below 50 µM. Is it met by O=C(NCCSc1ccccn1)C1CCCCO1 (configuration not stated) ?
Result: NOT MET

Problem: Criterion: IC50 strictly below 50 µM. Is it met by CCc1c(C)nc(-n2nc(-c3cccs3)cc2N)[nH]c1=O ?
Result: MET

Problem: Criterion: IC50 strictly below 50 µM. Is it met by CC(C)c1ccc(O)c(C(=O)NC2CCN(c3ncccn3)CC2)c1 ?
Result: MET

Problem: Criterion: IC50 strictly below 50 µM. Is it met by CCOc1cc(C(=O)n2cc(C)cn2)cc(OCC)c1OCC ?
Result: MET

Problem: Criterion: IC50 strictly below 50 µM. Is it met by CN1CCCN(Cc2cc(F)cc(F)c2)CC1=O ?
Result: NOT MET

Problem: Criterion: IC50 strictly below 50 µM. Is it met by Cc1ccccc1N1CCN(c2nc(N(C)C)nc3c2CCNC3)CC1 ?
Result: MET

Problem: Criterion: IC50 strictly below 50 µM. Is it met by Clc1ccc(-c2nnc([C@H]3CCN(C4CCCCC4)C3)o2)cc1 ?
Result: MET

Problem: Criterion: IC50 strictly below 50 µM. Is it met by Cc1cccc(CN2CCCC3(CCN(C4CCSCC4)C3)C2=O)c1 (configuration not stated) ?
Result: MET

Problem: Criterion: IC50 strictly below 50 µM. Is it met by CCC(O)CNc1ccc(-c2nc(CC(C)C)no2)cn1 (configuration not stated) ?
Result: MET

Problem: Criterion: IC50 strictly below 50 µM. Is it met by CN(Cc1cccc(F)c1)C(=O)c1cnccn1 ?
Result: NOT MET

Problem: Criterion: IC50 strictly below 50 µM. Is it met by O=C1NCC2(CCCN(C(=O)c3c[nH]nc3-c3cccs3)C2)O1 (configuration not stated) ?
Result: NOT MET

Problem: Criterion: IC50 strictly below 50 µM. Is it met by CNC(=O)CSCc1nc(-c2ccccc2C)no1 ?
Result: NOT MET

Problem: Criterion: IC50 strictly below 50 µM. Is it met by CC(CNC(=O)c1cnccn1)Oc1cccc(Br)c1 (configuration not stated) ?
Result: MET

Problem: Criterion: IC50 strictly below 50 µM. Is it met by CC(C)c1nsc(NC2CCOC3(CCCC3)C2)n1 (configuration not stated) ?
Result: MET

Problem: Criterion: IC50 strictly below 50 µM. Is it met by CC(C)CCC(C)NC(=O)Nc1ccccn1 (configuration not stated) ?
Result: MET

Problem: Criterion: IC50 strictly below 50 µM. Is it met by CC(C)Oc1ccc(S(=O)(=O)N(C)C(C)CN)cc1 (configuration not stated) ?
Result: NOT MET
